System: neutrophils
Test: Neutrophil calcium flux assay (5-OXO-ETE-stimulated, Indo-1 fluorescence)
Type: cell-based
Details: Neutrophil, 5-OXO-ETE-stimulated calcium flux
Would you kindly list IC50 for each of these molecules?

CC(CC(=O)O)CC(=O)c1c(CCCCOCc2cccc(Cl)c2)n(CCO)c2ncc(C#N)cc12 (stereo not shown) [Compound I-377]	> 300 nM
CC(CC(=O)O)CC(=O)c1c(CCCCCCc2cccc(C#N)c2)n(C)c2ncc(Cl)cc12 (stereo not shown) [Compound I-285]	< 100 nM
Cn1c(CCCCCCCC#CC2CC(F)(F)C2)c(C(=O)N2CC[C@H](c3nnn[nH]3)C2)c2cc(C#N)cnc21 [Compound I-358]	> 300 nM

Continue with the molecule presented below.
# molecule Cn1c(CCCCCCc2cccc(Cl)c2)c(C(=O)N2CC(C(=O)O)C2)c2cc(Cl)ccc21 [Compound I-151] ; its IC50 = 100 to 300 nM

====

Test system: neutrophils
Assay: Neutrophil calcium flux assay (5-OXO-ETE-stimulated, Indo-1 fluorescence)
Assay type: cell-based
Conditions: Neutrophil, 5-OXO-ETE-stimulated calcium flux
measurement-type: IC50

CC(CC(=O)O)CC(=O)c1c(CCOCCNc2ccc(F)cc2)n(C)c2ccc(Cl)cc12 (stereo not shown)	> 300 nM
CC(CC(=O)O)CC(=O)c1c(CCCCCCCC#CC2CC(F)(F)C2)n(C)c2ncc(Cl)cc12 (stereo not shown)	> 300 nM
CC(CC(=O)O)CC(=O)c1c(CCCCOCc2cccc(OC(F)(F)F)c2)n(C)c2cnc(Cl)cc12 (stereo not shown)	< 100 nM
C[C@H](CC(=O)O)CC(=O)c1c(CCCCCCC#CC2CC(F)(F)C2)n(C)c2ncc(C#N)cc12	< 100 nM
C[C@H](CC#N)CC(=O)c1c(CCCCOCc2cccc(Cl)c2)n(C)c2ncc(Cl)cc12	> 300 nM
C[C@H](CC(=O)O)CC(=O)c1c(CCOCCOc2cccc(Cl)c2)n(C)c2ccc(Cl)cc12	100 to 300 nM

Continue with the compound presented below.
Form field, IC50 with neutrophils, item `C[C@@H]1CN(C(=O)c2c(CCCCCCC#CC3CC(F)(F)C3)n(C)c3ncc(C#N)cc23)C[C@H]1C(=O)O` : > 300 nM

====

Test system: neutrophils
Assay: Neutrophil calcium flux assay (5-OXO-ETE-stimulated, Indo-1 fluorescence)
Assay type: cell-based
Conditions: Neutrophil, 5-OXO-ETE-stimulated calcium flux
measurement-type: IC50

Consider the worked cases shown below.
CC[C@@H](CC(=O)O)CC(=O)c1c(CCCCOCc2ccccc2)n(C)c2ncc(C#N)cc12 [Compound I-439]	> 300 nM
CC(CC(=O)O)CC(=O)c1c(CCCCCCc2cccc(Cl)c2)n(CCN(C)C)c2ncc(C#N)cc12 (stereo not drawn) [Compound I-281]	> 300 nM
CC(CC(=O)O)CC(=O)c1c2cc(C#N)cnc2n(C)c1[C@H]1CC[C@H](OCc2cccc(Cl)c2)CC1 (stereo partly drawn) [Compound I-367]	> 300 nM
CC(CC(=O)O)CC(=O)c1c(CCCCCC(O)c2ccc(F)cc2)n(C)c2ncc(C#N)cc12 (stereo not drawn) [Compound I-311]	> 300 nM
C[C@@H](CC(=O)O)CC(=O)c1c(CCCCOCc2cccc(Cl)c2)n(C)c2ccc(C#N)cc12 [Compound I-469]	100 to 300 nM
C[C@@H](CC(=O)c1c(CCCCCCc2cccc(Cl)c2)n(C)c2ccc(Cl)cc12)Cc1nnn[nH]1 [Compound I-13]	< 100 nM

Field: IC50. Fill in for each record below.
1. Cn1c(CCCCOCc2ccccc2)c(C(=O)N2CC[C@H](C(=O)O)C2)c2cnccc21 [Compound I-441]
2. C[C@H](CC(=O)NCCS(=O)(=O)O)CC(=O)c1c(CCCCOCc2ccccc2)n(C)c2ncc(C#N)cc12 [Compound I-461]
3. COc1cccc(CCCCC#Cc2c(C(=O)CC(C)CC(=O)O)c3cc(C#N)cnc3n2C)c1 (stereo not drawn) [Compound I-419]
4. C[C@H](CC(=O)N[C@@H](Cc1ccccc1)C(=O)O)CC(=O)c1c(CCCCOCc2ccccc2)n(C)c2ncc(C#N)cc12 [Compound I-467]
5. CC(CC(=O)O)CC(=O)c1c(CCCCOCc2ccc(F)c(Cl)c2)n(C)c2ncc(C#N)cc12 (stereo not drawn) [Compound I-291]
6. Cn1c(CCCCCCc2cccc(Cl)c2)c(C(=O)N2CC(C(=O)O)C2)c2cc(Cl)cnc21 [Compound I-153]
7. CC(CC(=O)O)CC(=O)c1c(CCCCCCc2cccc(Cl)c2)n(C)c2ccc(C(F)(F)F)cc12 (stereo not drawn) [Compound I-58]
8. Cn1c(CCCCCCc2cccc(Cl)c2)c(C(=O)N2CC[C@@H](C(=O)O)C2)c2cc(Cl)ccc21 [Compound I-120]

1. > 300 nM
2. > 300 nM
3. > 300 nM
4. > 300 nM
5. < 100 nM
6. > 300 nM
7. < 100 nM
8. 100 to 300 nM

Form field, IC50 with neutrophils, item COc1cccc(C(O)CCCCCc2c(C(=O)CC(C)CC(=O)O)c3cc(C#N)cnc3n2C)c1 (stereo not drawn) [Compound I-302] : < 100 nM
